Target: T1, purified recombinant RSV-Ga protein (Sino Biologics) (Respiratory Syncytial Virus subtype A, …, UniProt P03423 64-298)
T1 sequence: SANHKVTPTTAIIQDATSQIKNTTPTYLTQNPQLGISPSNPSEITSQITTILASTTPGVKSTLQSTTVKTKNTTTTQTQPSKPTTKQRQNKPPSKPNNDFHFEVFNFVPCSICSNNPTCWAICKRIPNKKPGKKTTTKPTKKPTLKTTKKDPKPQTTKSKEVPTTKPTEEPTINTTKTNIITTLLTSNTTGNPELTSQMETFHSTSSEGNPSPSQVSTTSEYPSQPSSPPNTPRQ
Assay: SPR (IBIS MX96), IgG captured on anti-human IgG, RSV Ga injected
assay endpoint: koff (s⁻¹)
Please reply with the bare figure in s⁻¹ and do not write the unit itself.

[ask] Requested field: koff. Item: AT42 (antibody, V domains shown) VH: QVQLQESGPGLVQPSETLSLTCTVSGDSITSNVYYWGWIRQPPGKGLEWIGSIFHSGITHYTPSLNSRVTISVDTSKNQFSLRLSSATAADTAVYYCARHWAGLYFDSWGQGALVAVSS VL: EIVLTQSPGTLSLSPGERATLSCRASQTVSSSHLAWYQQKPGQAPRLLIHGSSSRATGIPERFSGSGSGPDFTLTISRLKPEDFAVYYCQYYGDSPGSFGEGTKVEIKR
[reply] 0.00076
